Observed property: melting point

Task: What value of melting point has been recorded for this entry: O=C(CN1C(C(=O)c2ccccc2)=C(O)c2ccccc2S1(=O)=O)Nc1ccc([N+](=O)[O-])cc1 [Compound 11i]
Output: 194 to 195 °C

Task: Given the molecule O=C(CN1C(C(=O)c2ccc(Br)cc2)=C(O)c2ccccc2S1(=O)=O)Nc1ccc(Cl)cc1 [Compound 12c] , what is its reported melting point?
Output: 181 to 184 °C

Task: Could you tell me which melting point is on file for COc1ccccc1NC(=O)CN1C(C(=O)c2ccccc2)=C(O)c2ccccc2S1(=O)=O [Compound 11l] ?
Output: 199 to 200 °C

Task: Would you kindly share the measured melting point for O=C(CN1C(C(=O)c2ccccc2)=C(O)c2ccccc2S1(=O)=O)Nc1ccccc1[N+](=O)[O-] [Compound 11g] ?
Output: 157 to 158 °C
